Biological target: Amine oxidase [flavin-containing] B (Rattus norvegicus, UniProt P19643)
Sequence (P19643 whole entry): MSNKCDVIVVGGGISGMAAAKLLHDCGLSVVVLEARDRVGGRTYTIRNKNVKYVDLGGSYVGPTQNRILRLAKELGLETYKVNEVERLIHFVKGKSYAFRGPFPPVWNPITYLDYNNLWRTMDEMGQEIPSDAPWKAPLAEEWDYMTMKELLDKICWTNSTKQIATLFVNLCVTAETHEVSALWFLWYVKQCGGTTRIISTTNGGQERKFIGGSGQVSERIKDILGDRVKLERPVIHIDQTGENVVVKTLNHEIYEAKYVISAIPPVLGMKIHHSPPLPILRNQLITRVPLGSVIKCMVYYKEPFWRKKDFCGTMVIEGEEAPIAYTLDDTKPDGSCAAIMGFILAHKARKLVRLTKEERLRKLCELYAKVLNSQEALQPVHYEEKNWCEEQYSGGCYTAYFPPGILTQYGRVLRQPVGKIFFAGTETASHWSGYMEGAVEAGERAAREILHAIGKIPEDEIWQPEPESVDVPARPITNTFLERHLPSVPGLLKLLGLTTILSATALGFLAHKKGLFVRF
test.readout: pKi
# pKi = -log10(concentration in molar units)

| molecule | measured.value |
| --- | --- |
| c1ccc(C2CC(c3c4ccccc4cc4ccccc34)=NN2)nc1 (stereo not given) | 8.00 |
| Oc1ccccc1C1CC(c2c3ccccc3cc3ccccc23)=NN1 (stereo not given) | 8.23 |
| c1ccc(C2CC(c3c4ccccc4cc4ccccc34)=NN2)cc1 (stereo not given) | 8.46 |

In: # pKi lookup, item Cc1ccc(C2CC(c3c4ccccc4cc4ccccc34)=NN2)cc1 (stereo not given)
Out: 8.42

In: Next molecule up: Oc1ccc(C2CC(c3c4ccccc4cc4ccccc34)=NN2)c(O)c1 (stereo not given)
Out: 8.32
